# key: entry, value: IC50
biological target: KRas G12D (Homo sapiens, UniProt P01116, G12D); experiment: biochemical;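 also: TR-FRET displacement binding assay on KRas, read after a one-hour incubation at room temperature, IC50 fitted from percent-of-control values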
Sequence (P01116 1-169 isoform P01116-2 G12D): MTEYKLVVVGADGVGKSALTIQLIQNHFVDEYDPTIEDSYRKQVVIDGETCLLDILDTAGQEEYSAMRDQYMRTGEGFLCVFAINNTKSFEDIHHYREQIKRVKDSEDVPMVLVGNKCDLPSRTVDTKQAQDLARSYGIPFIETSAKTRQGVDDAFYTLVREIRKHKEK
// units = µM; emit number, no label

CCc1c(F)ccc2cc(O)cc(-c3ncc4c(NCCC5NC(=O)NC5=O)nc(OC[C@@]56CCCN5C[C@H](F)C6)nc4c3F)c12 (stereo partly drawn); 0.013
NC(=O)c1cc2n(n1)CCCN(c1nc(OCC34CCCN3CCC4)nc3c(F)c(-c4cccc5cccc(F)c45)ncc13)C2; 0.32
CCc1c(F)ccc2cc(O)cc(-c3ncc4c(N5CCCC6(CCC(F)(F)C6)C5)nc(OC[C@@]56CCCN5C[C@H](F)C6)nc4c3F)c12 (stereo partly drawn); 0.006

We now examine a further compound.
Param item = O=C1CCN(c2nc(OCC34CCCN3CCC4)nc3c(F)c(-c4cccc5cccc(F)c45)ncc23)CCCN1 ; retrieve measured IC50.
8.18
